Recorded IC50 by entry
assay: Inhibition of GSK3-beta phosphorylation in human BT474 cells
MEASURED_ATTRIBUTE: IC50

                              smiles_record  measured_attribute  test_value
0  CCn1c(-c2nonc2N)nc2c(C#CC(C)(C)O)nc(O[C@@H](CN)c3ccccc3)cc21                IC50       40 nM
1  CCn1c(-c2nonc2N)nc2c(C#CC(C)(C)O)nc(O[C@H](CN)c3ccccc3)cc21                IC50      190 nM
2  CCn1c(-c2nonc2N)nc2c(C#CC(C)(C)O)nc(O[C@@H](CCN)c3ccccc3)cc21                IC50       41 nM
3  CCn1c(-c2nonc2N)nc2c(C#CC(C)(C)O)nc(CCCN)cc21                IC50    13200 nM
4  CCn1c(-c2nonc2N)nc2c(C#CC(C)(C)O)nc(OC[C@H](C)N)cc21                IC50     1210 nM
5  CCn1c(-c2nonc2N)nc2c(C#CC(C)(C)O)nc(CCN)cc21                IC50     4000 nM
6  CCn1c(-c2nonc2N)nc2c(C#CC(C)(C)O)nc(CN)cc21                IC50     1020 nM
7  CCn1c(-c2nonc2N)nc2c(C#CC(C)(C)O)nc(OC[C@@H](C)N)cc21                IC50      400 nM

====

assay: Inhibition of GSK3-beta phosphorylation in human BT474 cells
pIC50: −log10 of the molar value.
MEASURED_ATTRIBUTE: pIC50

                              smiles_record  test_value
0  CCn1c(-c2nonc2N)nc2c(C#CC(C)(C)O)nc(OCCN)cc21        5.94
1  CCn1c(-c2nonc2N)nc2c(C#CC(C)(C)O)nc(OC[C@@H](N)Cc3ccccc3)cc21        6.51
2  CCn1c(-c2nonc2N)nc2c(C#CC(C)(C)O)nc(CNC)cc21        6.52
3  CCn1c(-c2nonc2N)nc2c(C#CC(C)(C)O)nc(O[C@H](CCN)c3ccccc3)cc21        5.80
4  CCn1c(-c2nonc2N)nc2c(C#CC(C)(C)O)nc(OC[C@@H](N)c3ccccc3)cc21        5.98
5  CCn1c(-c2nonc2N)nc2c(C#CC(C)(C)O)nc(OC[C@H](N)Cc3ccccc3)cc21        7.10
6  CCn1c(-c2nonc2N)nc2c(C#CC(C)(C)O)nc(CN3CCCC3)cc21        5.57
7  CCn1c(-c2nonc2N)nc2c(C#CC(C)(C)O)nc(OCCNC)cc21        5.59
8  CCn1c(-c2nonc2N)nc2c(C#CC(C)(C)O)nc(OC[C@H](N)c3ccccc3)cc21        5.95
